- MEASURED ON: T1, PSMA Fab (biotinylated (site not stated))
- T1 construct: also called Anti-PSMA Fab; 006 PSMA Fab
- EXPERIMENT SUMMARY: clonal phage ELISA on captured PSMA Fab, wells pre-incubated with PSMA antigen as competitor; column meaning inferred
Where no end group is shown, it is not given here.
OUTCOME MEASURE: Phage binding ELISA signal, Anti-PSMA Fab in presence of PSMA antigen

BINDER: VEKWCIPEWMCETS (cysteine pairing not given here; also: displayed on phage pIII, linker not given here, Clonal phage of the peptide-180 library; not shown: fused to pIII of the bacteriophage) [Phage-2611]
REPORTED RESULT: 0.0624
//
BINDER: SSMLCIPPWMCEQS (cysteine pairing not given here; also: displayed on phage as pIII fusion, linker and pIII sequence not given here, Clonal phage of the peptide-180 library; not shown: fused to pIII of the bacteriophage) [Phage-2610]
REPORTED RESULT: 0.0682
//
BINDER: QDNWCIPRWMCEAM (cysteine pairing not given here; also: displayed on phage pIII, linker not given here, Clonal phage of the peptide-180 library; not shown: fused to pIII of the bacteriophage) [Phage-2616]
REPORTED RESULT: 0.0626
//
BINDER: LHKLCIPEWMCEYY (cysteine pairing not given here; also: displayed on phage as pIII fusion, linker and pIII sequence not given here, Clonal phage of the peptide-180 library; not shown: fused to pIII of the bacteriophage) [Phage-2608]
REPORTED RESULT: 0.0595

From: patent US20260242478A1
